test: Half life in human microsomes; format: ADME, Microsome
PROPERTY_LABEL: half-life (min)

Known half-life results, listed for orientation:
Input: Give half-life for the following compound: Cn1cnc(C(=O)N(Cc2cccc(OC(F)(F)F)c2)[C@@H]2C[C@@H]3CN(CC(C)(C)O)C[C@@H]3C2)c1
Output: 7.06

Input: Give half-life for the following compound: Cn1cnc(C(=O)N(Cc2cccc(OC(F)(F)F)c2)[C@@H]2C[C@@H]3CN(CC(O)c4ccccc4)C[C@@H]3C2)c1 (stereo partly drawn)
Output: 8.19

1. CCN1C[C@H]2C[C@@H](N(Cc3cccc(OC(F)(F)F)c3)C(=O)c3cn(C)cn3)C[C@H]2C1
2. CN1C[C@H]2C[C@@H](N(Cc3cccc(OC(F)(F)F)c3)C(=O)c3cn(C)cn3)C[C@H]2C1
Input: Identify the entry with the smaller half-life: 1 or 2 . Your choice should be expressed through its label.
Output: 1
(1: 10 min, 2: 30.5 min)
